Just for reference, ChEMBL document CHEMBL4725237 is where these values come from.

What MIC was measured for each of the following?
# Test system: Escherichia coli
# assay_name: Antibacterial activity against Escherichia coli BL21 (DE3) assessed as prevention of visible growth incubated for 20 hrs by two-fold serial microbroth dilution method
# Format: functional
Give bare numbers, in µg/mL.

smiles_string | MIC (µg/mL)
C[C@@H](O)[C@H](NC(=O)c1ccc(C#Cc2ccc(CN3CCOCC3)cc2)cc1)C(=O)NO | 0.25

Now examine the next entry.
Input line: Suppose we examine the compound `O=C(CO[C@H](CO)c1ccc(C#Cc2ccccc2)cc1)NO` ; what MIC value has been reported?
Output line: 64

====

What MIC was measured for each of the following?
# Tested on: Escherichia coli
# assay_name: Antibacterial activity against Escherichia coli BL21 (DE3) assessed as prevention of visible growth incubated for 20 hrs by two-fold serial microbroth dilution method
# Type: functional

Record excerpt, results attached:
smiles_string | measurement_name | measured_result
O=C(CO[C@H](Cn1cc(CO)nn1)c1ccc(C#Cc2ccccc2)cc1)NO | MIC | > 64 µg/mL
O=C(CO[C@@H](CO)c1ccc(C#Cc2ccccc2)cc1)NO | MIC | > 64 µg/mL

Now examine the next entry.
Input line: Suppose we examine the compound `O=C(CO[C@H](Cn1cc(-c2ccccc2)nn1)c1ccc(OCc2ccccc2)cc1)NO` ; what MIC value has been reported?
Output line: > 64 µg/mL
